Molecular target: Bile acid receptor (Homo sapiens) (UniProt Q96RI1)
Sequence (whole entry): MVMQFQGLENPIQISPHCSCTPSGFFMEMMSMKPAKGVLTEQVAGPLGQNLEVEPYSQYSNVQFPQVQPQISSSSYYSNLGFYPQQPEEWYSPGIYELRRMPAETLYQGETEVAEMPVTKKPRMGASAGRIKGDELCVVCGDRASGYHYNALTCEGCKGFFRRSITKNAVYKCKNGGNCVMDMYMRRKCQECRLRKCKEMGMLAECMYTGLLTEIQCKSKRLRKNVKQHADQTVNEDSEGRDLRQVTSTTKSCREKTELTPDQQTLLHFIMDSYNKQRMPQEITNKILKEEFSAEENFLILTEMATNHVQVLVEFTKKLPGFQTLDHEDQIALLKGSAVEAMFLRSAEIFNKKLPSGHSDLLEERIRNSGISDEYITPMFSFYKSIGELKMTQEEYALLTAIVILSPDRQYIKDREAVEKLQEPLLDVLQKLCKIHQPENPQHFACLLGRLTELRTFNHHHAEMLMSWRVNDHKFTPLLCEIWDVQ
Test: Agonist activity at GST-tagged FXR LBD (187 to 472 residues) (unknown origin) assessed as FXR interaction with b-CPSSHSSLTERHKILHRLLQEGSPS-COOH by FRET assay relative to GW4064
Property: Efficacy (%)
Field: numeric (%). Do not append units.

In: Annotate the compound Cn1nc(C(=O)O)c2ccc([C@H]3C[C@](O)(c4ccc(OCc5c(-c6c(Cl)cccc6Cl)noc5C5CC5)cc4Cl)C3)cc21 with its measured Efficacy.
Out: 99

In: Please list Efficacy recorded for the compound O=C(O)c1cccc([C@H]2C[C@@H]2c2ccc(OCc3c(-c4c(Cl)cccc4Cl)noc3C3CC3)cc2Cl)c1
Out: 101

In: Answer with the recorded Efficacy for the compound listed here: O=C(O)c1ccc([C@H]2C[C@](O)(c3ccc(OCc4c(-c5c(Cl)cccc5Cl)noc4C4CC4)cc3Cl)C2)cc1
Out: 105

In: Kindly indicate its recorded Efficacy. Item: O=C(O)c1cncc(C2CC2c2ccc(OCc3c(-c4c(Cl)cccc4Cl)noc3C3CC3)cc2Cl)c1 (stereo not drawn)
Out: 103

In: Output Efficacy of CC(C)n1nc(C(=O)O)cc1C1CC1c1ccc(OCc2c(-c3c(Cl)cccc3Cl)noc2C2CC2)cc1Cl (racemic)
Out: 102

In: Could you please provide reported Efficacy for Clc1cc(OCc2c(-c3c(Cl)cccc3Cl)noc2C2CC2)ccc1C1CC1c1ccc(-c2nnn[nH]2)nc1 (stereo not drawn) ? Thanks!
Out: 101

In: State its Efficacy for this compound: CS(=O)(=O)NC(=O)c1ccc(C2CC2c2ccc(OCc3c(-c4c(Cl)cccc4Cl)noc3C3CC3)cc2Cl)cc1 (racemic)
Out: 100

In: Please give the documented Efficacy of CC(C)n1nc(C(=O)O)cc1[C@@H]1C[C@H]1c1ccc(OCc2c(-c3c(Cl)cccc3Cl)noc2C2CC2)cc1Cl
Out: 101

In: Indicate its recorded Efficacy; the compound in question is O=C(O)CNC(=O)c1ccc(C2CC2c2ccc(OCc3c(-c4c(Cl)cccc4Cl)noc3C3CC3)cc2Cl)cc1 (racemic)
Out: 100

In: Output Efficacy of O=C(O)c1cccc([C@H]2C[C@](OCCO)(c3ccc(OCc4c(-c5c(Cl)cccc5Cl)noc4C4CC4)cc3Cl)C2)c1
Out: 97

In: Give Efficacy for the following compound: O=C(O)c1cccc([C@@H]2C[C@H]2c2ccc(OCc3c(-c4c(Cl)cccc4Cl)noc3C3CC3)cc2Cl)c1
Out: 100

In: Output measured Efficacy for this item: CCO[C@]1(c2ccc(OCc3c(-c4c(Cl)cccc4Cl)noc3C3CC3)cc2Cl)C[C@H](c2cccc(C(=O)O)c2)C1
Out: 94

In: Please report the measured Efficacy for CO[C@]1(c2ccc(OCc3c(-c4c(Cl)cccc4Cl)noc3C3CC3)cc2Cl)C[C@H](c2cccc(C(=O)O)c2)C1
Out: 93

====

Assay: Aqueous solubility of the compound
Type: physicochemical
Conditions: buffer
Property: solubility (µM)
State the answer as a number, implicitly in µM.

In: Check the records and state solubility for O=C(O)c1cncc(C2CC2c2ccc(OCc3c(-c4c(Cl)cccc4Cl)noc3C3CC3)cc2Cl)c1 (stereo unspecified)
Out: 165

In: For CC(C)n1nc(C(=O)O)cc1C1CC1c1ccc(OCc2c(-c3c(Cl)cccc3Cl)noc2C2CC2)cc1Cl (racemic) , write its solubility.
Out: 158

In: Please supply the value of reported solubility for the item CC(C)n1nc(C(=O)O)cc1[C@H]1C[C@](O)(c2ccc(OCc3c(-c4c(Cl)cccc4Cl)noc3C3CC3)cc2Cl)C1
Out: 171

In: Name the recorded solubility of the compound listed here: O=C(O)c1cncc(N2CC(O)(c3ccc(OCc4c(-c5c(Cl)cccc5Cl)noc4C4CC4)cc3Cl)C2)c1
Out: 197

In: Return solubility (reported value) for this compound: O=C(O)c1ccc([C@H]2C[C@](O)(c3ccc(OCc4c(-c5c(Cl)cccc5Cl)noc4C4CC4)cc3Cl)C2)cc1
Out: 192

In: Give a short answer stating reported solubility for O=C(O)c1cccc(C2CC2c2ccc(OCc3c(-c4c(Cl)cccc4Cl)noc3C3CC3)cc2Cl)c1 (racemic) .
Out: 20

====

Assay: Half life in C57BL/6J mouse at 5 mg/kg, po and 1 mg/kg, iv
Assay type: ADME, organism-based
Conditions: in vivo
Property: half-life (min)
Just the number in min, nothing appended.

In: Fill in half-life for record O=C(O)c1cccc(C2CC2c2ccc(OCc3c(-c4c(Cl)cccc4Cl)noc3C3CC3)cc2Cl)c1 (racemic)
Out: 60

In: Item CC(C)n1nc(C(=O)O)cc1C1CC1c1ccc(OCc2c(-c3c(Cl)cccc3Cl)noc2C2CC2)cc1Cl (racemic) : provide half-life
Out: 48

In: Please indicate half-life recorded for CC(C)n1nc(C(=O)O)cc1[C@H]1C[C@](O)(c2ccc(OCc3c(-c4c(Cl)cccc4Cl)noc3C3CC3)cc2Cl)C1
Out: 36

In: Give the reported value of half-life for this record: O=C(O)c1ccc([C@H]2C[C@](O)(c3ccc(OCc4c(-c5c(Cl)cccc5Cl)noc4C4CC4)cc3Cl)C2)cc1
Out: 66

In: Dear colleague, please send me the reported half-life for O=C(O)c1ccc(C2CC2c2ccc(OCc3c(-c4c(Cl)cccc4Cl)noc3C3CC3)cc2Cl)cc1 (racemic) when you can.
Out: 30

In: Dear colleague, please send me the reported half-life for O=C(O)c1cccc([C@H]2C[C@](O)(c3ccc(OCc4c(-c5c(Cl)cccc5Cl)noc4C4CC4)cc3Cl)C2)c1 when you can.
Out: 36

====

Assay: AUC in C57BL/6J mouse at 5 mg/kg, po and 1 mg/kg, iv
Format: ADME, organism-based
Settings: in vivo
Property: log10 of AUC (log10 of the value in ng·h/mL)
Scale: log10; quantity: AUC; unit before log: ng·h/mL

In: Consider the compound O=C(O)c1cccc(C2CC2c2ccc(OCc3c(-c4c(Cl)cccc4Cl)noc3C3CC3)cc2Cl)c1 (racemic) and give its recorded log10 of AUC.
Out: 2.90

In: For the compound O=C(O)c1cccc([C@H]2C[C@](O)(c3ccc(OCc4c(-c5c(Cl)cccc5Cl)noc4C4CC4)cc3Cl)C2)c1 , give its reported log10 of AUC.
Out: 3.93

In: Specify reported log10 of AUC for the compound shown: CC(C)n1nc(C(=O)O)cc1C1CC1c1ccc(OCc2c(-c3c(Cl)cccc3Cl)noc2C2CC2)cc1Cl (racemic)
Out: 2.04

In: Item CC(C)n1nc(C(=O)O)cc1[C@H]1C[C@](O)(c2ccc(OCc3c(-c4c(Cl)cccc4Cl)noc3C3CC3)cc2Cl)C1 : provide log10 of AUC
Out: 2.98

In: Name the recorded log10 of AUC of the item O=C(O)c1ccc(C2CC2c2ccc(OCc3c(-c4c(Cl)cccc4Cl)noc3C3CC3)cc2Cl)cc1 (racemic) in your answer.
Out: 2.63

In: Complete the entry with log10 of AUC for O=C(O)c1ccc([C@H]2C[C@](O)(c3ccc(OCc4c(-c5c(Cl)cccc5Cl)noc4C4CC4)cc3Cl)C2)cc1
Out: 2.26

====

Target: Bile acid receptor (Homo sapiens)
Experiment: Agonist activity at C-terminal Gal4-tagged human FXR (187 to 472 residues) expressed in HEK-293 cells co-expressing pFRluc by mammalian one hybrid assay
Format: cell-based, HEK293
Property: EC50

In: Query EC50 for O=C(O)c1cccc([C@@H]2C[C@H]2c2ccc(OCc3c(-c4c(Cl)cccc4Cl)noc3C3CC3)cc2Cl)c1
Out: 29 nM

In: Annotate the compound CCO[C@]1(c2ccc(OCc3c(-c4c(Cl)cccc4Cl)noc3C3CC3)cc2Cl)C[C@H](c2cccc(C(=O)O)c2)C1 with its measured EC50.
Out: 220 nM

In: Write down EC50 measured for item O=C(O)c1cccc([C@H]2C[C@H](c3ccc(OCc4c(-c5c(Cl)cccc5Cl)noc4C4CC4)cc3Cl)C2)c1
Out: 15 nM

In: Check the records and state EC50 for CO[C@]1(c2ccc(OCc3c(-c4c(Cl)cccc4Cl)noc3C3CC3)cc2Cl)C[C@H](c2cccc(C(=O)O)c2)C1
Out: 102 nM

In: Return the recorded EC50 value; entry: O=C(O)c1ccc(C2CC2c2ccc(OCc3c(-c4c(Cl)cccc4Cl)noc3C3CC3)cc2Cl)cn1 (stereo not given)
Out: 57 nM

In: Look up EC50 of O=C(O)c1ccc([C@H]2C[C@](O)(c3ccc(OCc4c(-c5c(Cl)cccc5Cl)noc4C4CC4)cc3Cl)C2)cc1 and report it.
Out: 63 nM

In: Provide one value: measured EC50 of O=C(O)c1cccc(C2CC2c2ccc(OCc3c(-c4c(Cl)cccc4Cl)noc3C3CC3)cc2Cl)c1 (racemic)
Out: 34 nM

In: Assign EC50 to the following record: Cn1nc(C(=O)O)c2ccc([C@H]3C[C@](O)(c4ccc(OCc5c(-c6c(Cl)cccc6Cl)noc5C5CC5)cc4Cl)C3)cc21
Out: 50 nM

In: Please look at this compound and report its EC50: O=C(NCCS(=O)(=O)O)c1ccc(C2CC2c2ccc(OCc3c(-c4c(Cl)cccc4Cl)noc3C3CC3)cc2Cl)cc1 (racemic)
Out: 1370 nM

In: Let me know recorded EC50 for O=C(O)c1ccc([C@@H]2C[C@H]2c2ccc(OCc3c(-c4c(Cl)cccc4Cl)noc3C3CC3)cc2Cl)cc1 , thanks.
Out: 47 nM

In: Give recorded EC50. O=C(O)c1cncc(N2CC(O)(c3ccc(OCc4c(-c5c(Cl)cccc5Cl)noc4C4CC4)cc3Cl)C2)c1
Out: 552 nM

In: Query EC50 for O=C(O)c1cccc([C@H]2C[C@](OCCO)(c3ccc(OCc4c(-c5c(Cl)cccc5Cl)noc4C4CC4)cc3Cl)C2)c1
Out: 377 nM

In: Specify measured EC50 for O=C(O)c1cncc(C2CC2c2ccc(OCc3c(-c4c(Cl)cccc4Cl)noc3C3CC3)cc2Cl)c1 (stereo not given) .
Out: 14 nM

In: Item CC(C)n1nc(C(=O)O)cc1[C@@H]1C[C@H]1c1ccc(OCc2c(-c3c(Cl)cccc3Cl)noc2C2CC2)cc1Cl : provide EC50
Out: 4 nM

In: Using the record for CS(=O)(=O)NC(=O)c1ccc([C@@H]2C[C@H]2c2ccc(OCc3c(-c4c(Cl)cccc4Cl)noc3C3CC3)cc2Cl)cc1 , state its measured EC50.
Out: 44 nM
